- systemUnderTest: Sphingosine 1-phosphate receptor 2 (Homo sapiens)
- Sequence (O95136 whole entry): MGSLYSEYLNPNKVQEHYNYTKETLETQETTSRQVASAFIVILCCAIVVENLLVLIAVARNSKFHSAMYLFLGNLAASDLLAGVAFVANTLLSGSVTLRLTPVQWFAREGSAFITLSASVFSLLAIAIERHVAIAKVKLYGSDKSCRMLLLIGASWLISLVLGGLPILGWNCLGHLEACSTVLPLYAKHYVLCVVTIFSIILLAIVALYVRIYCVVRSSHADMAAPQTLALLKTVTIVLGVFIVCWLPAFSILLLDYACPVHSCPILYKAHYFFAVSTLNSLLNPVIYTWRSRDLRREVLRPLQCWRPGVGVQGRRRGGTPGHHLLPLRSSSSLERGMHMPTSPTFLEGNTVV
- procedureSummary: Maximal efficacy against sphingosine 1-phosphate receptor 2 determined by a [c-35S]-GTP binding assay
Emax listing for selected compounds.
endpointName: Emax

>>> reported("CCCCCCCCc1ccc(-c2c[nH]c(C(N)(CO)COP(O)(O)=S)n2)cc1 (stereo not given)")
0
>>> reported("CCCCCCCCc1ccc(-c2c[nH]c([C@H](N)CO)n2)cc1")
0
>>> reported("CCCCCCCCc1ccc(-c2c[nH]c([C@@H](N)COP(O)(O)=S)n2)cc1")
0
>>> reported("CCCCCCCCc1ccc(-c2c[nH]c([C@H](N)COP(=O)(O)O)n2)cc1")
0
>>> reported("CCCCCCCCc1ccc(-c2c[nH]c(C(C)(N)COP(O)(O)=S)n2)cc1 (stereo not given)")
0
>>> reported("CCCCCCCCc1ccc(CCC(N)(CO)COP(=O)(O)O)cc1 (stereo not given)")
0
>>> reported("CCCCCCCCc1ccc(-c2c[nH]c(C(N)(CO)COP(=O)(O)O)n2)cc1 (stereo not given)")
0.95
>>> reported("CCCCCCCCCCCCC/C=C/[C@@H](O)[C@@H](N)COP(=O)(O)O")
1
>>> reported("CCCCCCCCc1ccc(-c2c[nH]c(C(N)(CO)CO)n2)cc1")
0
>>> reported("CCCCCCCCc1ccc(-c2c[nH]c(C(C)(N)COP(=O)(O)O)n2)cc1 (stereo not given)")
0

###

pEC50 listing for selected molecules.
- systemUnderTest: UniProt O95977
- Sequence (O95977 whole entry): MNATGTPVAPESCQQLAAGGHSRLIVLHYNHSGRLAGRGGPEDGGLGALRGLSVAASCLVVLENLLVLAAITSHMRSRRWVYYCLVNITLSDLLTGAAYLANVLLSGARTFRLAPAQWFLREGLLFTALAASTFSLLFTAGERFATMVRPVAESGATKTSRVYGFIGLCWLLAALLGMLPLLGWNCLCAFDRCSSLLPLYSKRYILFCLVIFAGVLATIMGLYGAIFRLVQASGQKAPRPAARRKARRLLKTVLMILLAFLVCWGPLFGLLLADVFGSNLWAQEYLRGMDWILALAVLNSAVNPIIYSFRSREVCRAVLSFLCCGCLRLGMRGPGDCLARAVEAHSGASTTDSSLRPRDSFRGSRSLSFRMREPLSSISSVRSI
- procedureSummary: Effective concentration against sphingosine 1-phosphate receptor 4 determined by a [c-35S]-GTP binding assay
pEC50: −log10 of the molar value.
endpointName: pEC50

>>> reported("CCCCCCCCc1ccc(-c2c[nH]c(C(N)(CO)COP(=O)(O)O)n2)cc1 (stereo not given)")
6.80
>>> reported("CCCCCCCCc1ccc(-c2c[nH]c([C@H](N)CO)n2)cc1")
5.13
>>> reported("CCCCCCCCc1ccc(-c2c[nH]c(C(C)(N)COP(=O)(O)O)n2)cc1 (stereo not given)")
7.04
>>> reported("CCCCCCCCc1ccc(-c2c[nH]c([C@@H](N)COP(O)(O)=S)n2)cc1")
6.72
>>> reported("CCCCCCCCc1ccc(-c2c[nH]c([C@H](N)COP(=O)(O)O)n2)cc1")
6.40
>>> reported("CCCCCCCCc1ccc(-c2c[nH]c(C(N)(CO)COP(O)(O)=S)n2)cc1 (stereo not given)")
7.05
>>> reported("CCCCCCCCc1ccc(-c2c[nH]c([C@@H](N)COP(=O)(O)O)n2)cc1")
6.82
>>> reported("CCCCCCCCc1ccc(-c2c[nH]c(C(C)(N)COP(O)(O)=S)n2)cc1 (stereo not given)")
6.77
>>> reported("CCCCCCCCc1ccc(CCC(N)(CO)COP(=O)(O)O)cc1 (stereo not given)")
7.39
>>> reported("CCCCCCCCc1ccc(-c2c[nH]c(C(N)(CO)CO)n2)cc1")
6.18

###

- systemUnderTest: Sphingosine 1-phosphate receptor 1 (Homo sapiens, UniProt P21453)
- Sequence (P21453 whole entry): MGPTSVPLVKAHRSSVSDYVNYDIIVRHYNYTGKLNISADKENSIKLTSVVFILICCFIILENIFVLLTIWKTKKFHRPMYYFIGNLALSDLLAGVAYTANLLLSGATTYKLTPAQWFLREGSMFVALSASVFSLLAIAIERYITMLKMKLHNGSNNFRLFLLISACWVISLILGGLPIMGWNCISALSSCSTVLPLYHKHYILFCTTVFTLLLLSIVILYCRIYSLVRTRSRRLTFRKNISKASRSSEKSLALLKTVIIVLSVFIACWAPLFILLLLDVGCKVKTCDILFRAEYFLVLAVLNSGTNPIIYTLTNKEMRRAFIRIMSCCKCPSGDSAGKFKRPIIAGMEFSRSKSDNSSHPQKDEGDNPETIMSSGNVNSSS
- procedureSummary: Maximal efficacy against sphingosine-1-phosphate receptor 1 determined by a [c-35S]-GTP binding assay
Tick YES if Emax is 0.8 or greater. Tick NO if Emax is less than 0.8.

>>> qualitativelabel("CCCCCCCCc1ccc(-c2c[nH]c(C(C)(N)COP(=O)(O)O)n2)cc1 (configuration not stated)")
"YES"
>>> qualitativelabel("CCCCCCCCc1ccc(CCC(N)(CO)COP(=O)(O)O)cc1 (configuration not stated)")
"YES"
>>> qualitativelabel("CCCCCCCCc1ccc(-c2c[nH]c(C(N)(CO)COP(O)(O)=S)n2)cc1 (configuration not stated)")
"NO"
>>> qualitativelabel("CCCCCCCCc1ccc(-c2c[nH]c(C(C)(N)CO)n2)cc1 (configuration not stated)")
"NO"
>>> qualitativelabel("CCCCCCCCc1ccc(-c2c[nH]c([C@H](N)COP(=O)(O)O)n2)cc1")
"NO"
>>> qualitativelabel("CCCCCCCCc1ccc(-c2c[nH]c([C@@H](N)COP(=O)(O)O)n2)cc1")
"NO"
>>> qualitativelabel("CCCCCCCCc1ccc(-c2c[nH]c(C(N)(CO)CO)n2)cc1")
"NO"
